The measurements presented in this section are drawn from patent US20260347353A1.

System: NUGC3 cells (p53 Y220C)
method_summary: Cell Proliferation Assay (CellTiter-Glo), NUGC3 p53 Y220C
Assay type: cell-based
condition_summary: Homo sapiens, NUGC-3, 120 h, 5 days, read-out: CTG NUGC3 P53 Y220C IC50
Description: Inducible p53 Y220C and R273H constructs (Tet-One inducible expression system; Takara) were stably expressed in NCIH1299 cells by lentiviral transduction. NUGC3, A549, BxPC3, T3M4, HuH7, HCC2935, MFE296, NCIH1299, NCIH1299-inducible p53 Y220C, and NCIH1299-inducible p53 R273H cell lines were used for cell proliferation assay. […] The luminescent signal was measured by PheraStar microplate reader and IC50 was calculated.
# Lookup of reported IC50 keyed by entry
assay_readout: IC50

>>> print(df.to_string())
                                item_smiles  recorded_result
0  CN1CC[C@@H](Nc2cccn3c(SC(F)(F)F)c(-c4noc(CNC(=O)c5cccc6c5NC(=O)C6)n4)cc23)[C@@H](F)C1         < 750 nM
1  CN1CC[C@@H](Nc2cccn3c(SC(F)(F)F)c(-c4noc(CNC(=O)[C@H]5C[C@@H](O)C5)n4)cc23)[C@@H](F)C1  1500 to 3000 nM
2  C[C@H](O)CC(=O)NCc1nc(-c2cc3c(N[C@@H]4CCN(C)C[C@@H]4F)cccn3c2SC(F)(F)F)no1        ≥ 3000 nM
3  CNC(=O)c1cccc(C(=O)NCc2nc(-c3cc4c(N[C@@H]5CCN(C)C[C@@H]5F)cccn4c3SC(F)(F)F)no2)c1         < 750 nM
4  COc1ccc2nc(C(=O)NCc3nc(-c4cc5c(N[C@@H]6CCN(C)C[C@@H]6F)cccn5c4SC(F)(F)F)no3)ccc2c1  1500 to 3000 nM
5  CN1CC[C@@H](Nc2cccn3c(SC(F)(F)F)c(-c4noc(CNC(=O)[C@H]5COCCN5C)n4)cc23)[C@@H](F)C1        ≥ 3000 nM

###

Test system: NUGC3 cells (p53 Y220C)
method_summary: Cell Proliferation Assay (CellTiter-Glo), NUGC3 p53 Y220C
Assay type: cell-based
condition_summary: Homo sapiens, NUGC-3, 120 h, 5 days, read-out: CTG NUGC3 P53 Y220C IC50
Procedure: Inducible p53 Y220C and R273H constructs (Tet-One inducible expression system; Takara) were stably expressed in NCIH1299 cells by lentiviral transduction. NUGC3, A549, BxPC3, T3M4, HuH7, HCC2935, MFE296, NCIH1299, NCIH1299-inducible p53 Y220C, and NCIH1299-inducible p53 R273H cell lines were used for cell proliferation assay. […] The luminescent signal was measured by PheraStar microplate reader and IC50 was calculated.
pIC50: −log10 of the molar value.
assay_readout: pIC50

>>> print(df.to_string())
                                item_smiles  recorded_result
0  CNC(=O)c1ccc(NCc2nc(-c3cc4c(N[C@@H]5CCN(C)C[C@@H]5F)cccn4c3SC(F)(F)F)no2)nc1           > 6.12
1  CN1CC[C@@H](Nc2cccn3c(SC(F)(F)F)c(-c4noc(CNC(=O)C#CC5(NC(=O)OC(C)(C)C)CC5)n4)cc23)[C@@H](F)C1     5.82 to 6.12
2  CN1CC[C@@H](Nc2cccn3c(SC(F)(F)F)c(-c4noc(CNC(=O)N5CCOCC5)n4)cc23)[C@@H](F)C1     5.52 to 5.82
3  CN1CC[C@@H](Nc2cccn3c(SC(F)(F)F)c(-c4noc(CNC(=O)c5ccc6ncsc6c5)n4)cc23)[C@@H](F)C1           > 6.12
4  CN1CC[C@@H](Nc2cccn3c(SC(F)(F)F)c(-c4noc(CNC(=O)c5ccc(S(C)(=O)=O)cc5)n4)cc23)[C@@H](F)C1           > 6.12
5  CN1CC[C@@H](Nc2cccn3c(SC(F)(F)F)c(-c4noc(CNC(=O)c5ncn(C)n5)n4)cc23)[C@@H](F)C1           > 6.12

###

System: NUGC3 cells (p53 Y220C)
method_summary: Cell Proliferation Assay (CellTiter-Glo), NUGC3 p53 Y220C
Assay type: cell-based
condition_summary: Homo sapiens, NUGC-3, 120 h, 5 days, read-out: CTG NUGC3 P53 Y220C IC50
pIC50: −log10 of the molar value.
assay_readout: pIC50

                                item_smiles  recorded_result
0  CN1CC[C@@H](Nc2cccn3c(SC(F)(F)F)c(-c4noc(CNC(=O)c5cnc[nH]5)n4)cc23)[C@@H](F)C1     5.82 to 6.12
1  CN1CC[C@@H](Nc2cccn3c(SC(F)(F)F)c(-c4noc(CNC(=O)c5cnco5)n4)cc23)[C@@H](F)C1           > 6.12
2  CN1CC[C@@H](Nc2cccn3c(SC(F)(F)F)c(-c4noc(CNC(=O)c5cnc(N)o5)n4)cc23)[C@@H](F)C1           > 6.12
3  CN1CC[C@@H](Nc2cccn3c(SC(F)(F)F)c(-c4noc(CNC(=O)c5cc(C#N)cs5)n4)cc23)[C@@H](F)C1           > 6.12
4  CNC(=O)c1ccc(C(=O)NCc2nc(-c3cc4c(N[C@@H]5CCN(C)C[C@@H]5F)cccn4c3SC(F)(F)F)no2)cc1           > 6.12
5  CN1CC[C@@H](Nc2cccn3c(SC(F)(F)F)c(-c4noc(CNC(=O)C5COC5)n4)cc23)[C@@H](F)C1     5.52 to 5.82
6  CN1CC[C@@H](Nc2cccn3c(SC(F)(F)F)c(-c4noc(CNC(=O)c5ccno5)n4)cc23)[C@@H](F)C1     5.82 to 6.12

###

tgt: p53 Y220C (Homo sapiens, UniProt P04637, Y220C)
method_summary: Luciferase Reporter Assay, p53 Y220C (NCIH1299 cells with inducible p53 Y220C and p53 response element-luciferase)
Format: cell-based
condition_summary: 6 hour compound treatment, read-out: Luc P53 Y220C AC50
# Lookup of reported AC50 keyed by entry
assay_readout: AC50

>>> df
                                   compound  assay_readout  recorded_result
0  CN1CC[C@@H](Nc2cccn3c(SC(F)(F)F)c(-c4noc([C@@H](CO)NC(=O)C5CC5)n4)cc23)[C@@H](F)C1 [Example 53]           AC50        ≥ 3000 nM
1  CN1CC[C@@H](Nc2cccn3c(SC(F)(F)F)c(-c4noc(CNC(=O)c5ccc6ncsc6c5)n4)cc23)[C@@H](F)C1 [Example 40]           AC50         < 750 nM
2  COc1ccc2n[nH]c(CC(=O)NCc3nc(-c4cc5c(N[C@@H]6CCN(C)C[C@@H]6F)cccn5c4SC(F)(F)F)no3)c2c1 [Example 9]           AC50        ≥ 3000 nM
3  C[C@H](NC(=O)C1CC1)c1nc(-c2cc3c(N[C@@H]4CCN(C)C[C@@H]4F)cccn3c2SC(F)(F)F)no1 [Example 52]           AC50        ≥ 3000 nM
4  C[C@@H](NC(=O)C1CC1)c1nc(-c2cc3c(N[C@@H]4CCN(C)C[C@@H]4F)cccn3c2SC(F)(F)F)no1 (relative stereo) [Example 51]           AC50        ≥ 3000 nM
5  CN1CC[C@@H](Nc2cccn3c(SC(F)(F)F)c(-c4noc(CNC(=O)c5cncs5)n4)cc23)[C@@H](F)C1 [Example 70]           AC50         < 750 nM
6  CN1CC[C@@H](Nc2cccn3c(SC(F)(F)F)c(-c4noc(CNC(=O)COc5ccc(C#N)cc5)n4)cc23)[C@@H](F)C1 [Example 43]           AC50   750 to 1500 nM

###

tgt: p53 Y220C mutant protein (amino acid residues 94-293) (Homo sapiens, UniProt P04637, Y220C)
Construct: p53 Y220C mutant protein (amino acid residues 94-293)
Sequence (P04637 94-293, stated change not applied): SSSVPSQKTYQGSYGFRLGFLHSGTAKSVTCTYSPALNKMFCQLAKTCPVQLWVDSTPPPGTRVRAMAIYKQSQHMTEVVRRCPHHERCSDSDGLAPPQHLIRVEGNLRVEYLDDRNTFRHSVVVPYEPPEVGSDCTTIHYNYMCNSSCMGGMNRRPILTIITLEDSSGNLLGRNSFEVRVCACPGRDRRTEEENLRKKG
method_summary: Surface Plasmon Resonance (SPR) assay, p53 Y220C Kd_kinetic
condition_summary: multi-cycle kinetics, 16 or 20 °C, pH 7.5, 1:1 binding model
assay_readout: Kd

In [3]: df
Out[3]:
                                 item_smiles  recorded_result
 0  CN1CC[C@@H](Nc2cccn3c(SC(F)(F)F)c(-c4noc(CNC(=O)[C@@H]5COCCO5)n4)cc23)[C@@H](F)C1        < 0.01 µM
 1  CN1CC[C@@H](Nc2cccn3c(SC(F)(F)F)c(-c4cc(CNC(=O)C5CC5)no4)cc23)[C@@H](F)C1        < 0.01 µM
 2  CN1CC[C@@H](Nc2cccn3c(SC(F)(F)F)c(-c4noc(CNC(=O)c5ccc6ncsc6c5)n4)cc23)[C@@H](F)C1   0.01 to 0.1 µM
 3  CN1CC[C@@H](Nc2cccn3c(SC(F)(F)F)c(-c4noc(CNC(=O)c5ccc6c(c5)C(C)(C)C(=O)N6)n4)cc23)[C@@H](F)C1        < 0.01 µM
 4  Cc1ncc(C(=O)NCc2nc(-c3cc4c(N[C@@H]5CCN(C)C[C@@H]5F)cccn4c3SC(F)(F)F)no2)o1        < 0.01 µM
 5  CN1CC[C@@H](Nc2cccn3c(SC(F)(F)F)c(-c4noc(CNC(=O)c5cc(C#N)cs5)n4)cc23)[C@@H](F)C1   0.01 to 0.1 µM
 6  CN1CC[C@@H](Nc2cccn3c(SC(F)(F)F)c(-c4noc(CNC(=O)c5cnc(N6CCOCC6)o5)n4)cc23)[C@@H](F)C1        < 0.01 µM
 7  C[C@H](O)CC(=O)NCc1nc(-c2cc3c(N[C@@H]4CCN(C)C[C@@H]4F)cccn3c2SC(F)(F)F)no1   0.01 to 0.1 µM
 8  COc1csc(C(=O)NCc2nc(-c3cc4c(N[C@@H]5CCN(C)C[C@@H]5F)cccn4c3SC(F)(F)F)no2)c1        < 0.01 µM
 9  CN1CC[C@@H](Nc2cccn3c(SC(F)(F)F)c(-c4noc(CNC(=O)c5cnn(C)c5)n4)cc23)[C@@H](F)C1        < 0.01 µM
10  CN1CC[C@@H](Nc2cccn3c(SC(F)(F)F)c(-c4cc(CNC(=O)c5cnc(N(C)C)o5)no4)cc23)[C@@H](F)C1        < 0.01 µM
11  CN1CC[C@@H](Nc2cccn3c(SC(F)(F)F)c(-c4noc(CNC(=O)C#CC5(NC(=O)OC(C)(C)C)CC5)n4)cc23)[C@@H](F)C1        < 0.01 µM
12  CN1CC[C@@H](Nc2cccn3c(SC(F)(F)F)c(-c4noc(CNC(=O)C(C)(C)O)n4)cc23)[C@@H](F)C1   0.01 to 0.1 µM
